Here, each record is paired with measured RP-LC retention time data.
Experiment: gradient 5% acetonitrile 3 min, to 50% in 2 min, to 85% in 15 min, held 3 min, 100 µL/min
Settings: column: Zorbax Extend-C18 2.1 x 50 mm; eluents: water / acetonitrile, 0.1% formic acid
Field: numeric (s). Do not append units.

{"columns": ["COMPOUND", "RP-LC retention time / s"],
 "data": [
  ["CCNC(=O)c1cc2c(-c3cc(OCCN4CCCC4)c(Cl)cc3Cl)nc(N)nc2s1", 711]
]}

So, "O=C(Cn1cccc(-c2nc(-c3ccc(F)cc3)no2)c1=O)Nc1ccc2c(c1)OCO2" ? Its RP-LC retention time was 850

So, "Cc1csc(-c2cc(S(=O)(=O)Nc3ccc(S(N)(=O)=O)cc3)c(C)n2C)n1" ? Its RP-LC retention time was 749

So, "O=C(Cn1c(=O)c2cc(-c3ccco3)nn2c2ncccc21)NC1CCCCC1" ? Its RP-LC retention time was 793

So, CCC(=O)N1CCN(c2nc3c(s2)CC(C(=O)NC(CC)CC)CC3)CC1 (centres undefined) ? Its RP-LC retention time was 546

So, "O=C(CC1CCCCC1)Nc1ccc(-c2nc(-c3ccccc3)co2)cc1" ? Its RP-LC retention time was 1270

So, "Cc1c(CNCCCN2CCCC2=O)c(C(=O)O)c(C)n1Cc1cccc(Cl)c1" ? Its RP-LC retention time was 665

So, "CCn1nc(C)c(S(=O)(=O)N2CCN(C(=O)C3(c4ccc(OC)cc4)CC3)CC2)c1C" ? Its RP-LC retention time was 797

So, "CCCn1c(=O)c(-c2ccc(C(=O)NCCCN3CCCC3)cc2)nc2ccccc21" ? Its RP-LC retention time was 653

So, "Cc1ccc(-c2nc3cnccn3c2NCCC(=O)N(C)C)cc1" ? Its RP-LC retention time was 622

So, CCCC(NC(=O)Cc1cccc(OC)c1)C(=O)Nc1nc2ccccc2[nH]1 (centres undefined) ? Its RP-LC retention time was 700

So, "Cc1csc(-c2cn(CC(=O)Nc3ccc(C)c(C)c3)cn2)n1" ? Its RP-LC retention time was 722

* * *

Here, each record is paired with measured RP-LC retention time data.
Assay: gradient 5% acetonitrile 3 min, to 50% in 2 min, to 85% in 15 min, held 3 min, 100 µL/min
Conditions: column: Zorbax Extend-C18 2.1 x 50 mm; eluents: water / acetonitrile, 0.1% formic acid
Field: numeric (s). Do not append units.

{"columns": ["COMPOUND", "PARAMETER_MEASURED", "TEST_VALUE"],
 "data": [
  ["CCOc1ccc2nc(C(=O)NCCN3CCc4ccccc4C3)cn2n1", "RP-LC retention time", 577],
  ["CC(C)CCNC(=O)N1CC(c2nc(-c3cccnc3)no2)C2(CCOCC2)C1 (stereo not given)", "RP-LC retention time", 725]
]}

So, "Cc1ccc(Nc2c(-c3ccc(C(=O)O)cc3)nc3cnccn23)cc1" ? Its RP-LC retention time was 766

So, "O=C(NC1CCN(c2nnc3ccc(Cl)cn23)CC1)c1ccsc1" ? Its RP-LC retention time was 602

So, "O=C(c1cnn(-c2ccccc2)n1)N1CC(c2nc3ccccc3[nH]2)C1" ? Its RP-LC retention time was 578
